Each recorded value in this set is attributed to the supplement of paper PMC9170038.

# Test system: MS2 coat protein
# test_description: apparent KD of MS2 coat protein; designed switch direction (-1 OFF switch, 1 ON switch): -1; higher = weaker reporter binding
# measurement_parameters: Eterna round: R95; input ligand: microRNA oligo, concentration not stated

primary_sequence	unit_string	apparent KD of MS2 coat protein
AAGAAACAUGAGGAUCACCCAUGUGAGGAUAUGACAAAGAAAAGAAAAGAAAGAAGAUUCAGAAGGCACAAAGG [salish99-ex1_r3_036] (puzzle: Exclusion 1)	nM	53.6
GACAGUUCGGAGGAUAUCCAGAACUAAGAACAAGGAGAAGGCCGAACAUGAGGAUCACCCAUGUGUGUUCCCAU [Isdiorzaar] (puzzle: Exclusion 6)	nM	30.7
AAUAACAGAGGAUAUACUAUUUUAUGUGUUUGUUAUUUUAAACAUGAGGAUCACCCAUGUAGAAGGCUGAAUAA [JMF 14] (puzzle: Exclusion 2)	nM	19.1
AGAAAUGCCCAUGGCCACAAGCUUUUUGCUUGUCUUACUACAUGAGGAUCACCCAUGUAACAUGGGCUCCUGACAAA [Soarriat] (puzzle: Sensor v3, turn-off variant 2)	nM	9.12
UUACUAUGUCGCUUAAUAGCUUUUUGCUCGUCUUAUAUUACAUGAGGAUCACCCAUGUAGAUCAUGUGGCGUGACCU [JL ViennaUCT Maridi mod 6] (puzzle: Sensor v3, turn-off variant 2)	nM	36

---

# Tested on: MS2 coat protein
# test_description: apparent KD of MS2 coat protein; higher = weaker reporter binding
# measurement_parameters: Eterna round: R107; input ligand: theophylline 2 mM

primary_sequence	apparent KD of MS2 coat protein (nM)
GGACAUGCAGGAAGGAGCGACACGCAGAAACUGCAAAAUCCUCCACACGAGGAUCACCCGUGUCAGGUAGGUCGCCUGCAUGUCG [ArgXB 15 #Zipper #MS2Left #StaticStem #Blueprint]	127
UAUAUAUAGGCGGCCGCCACUGAUUUUCAUAUAUAUAUAACAUGAGGAUCACCCAUGUAGAUAUACAGGACCGGGCCUAUAUAUA [aaaA]	14.7
UGUACCUAGUCGGCCGCCACUCAAUAAUGAGAGGAUCACCCUCAUAAACGAGUCAAAGACUCGAUGAGGACCGGGACUAGGUACU [Palindromic MS2 2 #AlternativeMS2 #Palindrome #StaticStem]	72.7
UUGGGUUUGUGAAGGAGCGGGAAAGUUUUAUAGUGAAUCCUAACAUGAGGAUCACCCAUGUCCCAGGUAGGUCGCGCGGGUUUGG [12.Q]	144
UUUAUAUAGACGGCCGCCACUGGAAUUAAUACAUGAGGAUCACCCAUGUAUAGAGAAUAAUAAUACAGGACCGGGUCUUCAUGAU [SS Tryp B Tesla 1.1]	33.7
AUGCUUAUCAGAAGGAGCGUCAUUAACAUGAGGAUCACCCAUGUAACAUUGAAUUCGAUGAGACAGGUAGGUCGCUGAAUAGUAA [SS-ArgB27]	41.3
CUCUUGGCCGCAGUACGUUUAUAGACCUAUCGAGGACCGGUACGGCCGCCACUCGGUUAGUCACAUGAGGAUCACCCAUGUGUCC [theeternabot_exclusion_MS2_Trp_A_38]	19.7
UUAUUUAACGGAAGGAGCGCGGAAUAAUAAGUGGGUAAACAUGAGGAUCACCCAUGUAAACCGCAGGUAGGUCGCCGAUAUUUAU [AstrosEXyARgB#3]	98.1
AUACAUGAGGAUCACCCAUGUCAUUCAGAAGGAGCGUCAUUUUAGACAGGUAGGUCGCUGUUAUUGGUAUUAUACUUUAUGUUUA [JR_ExcArginiA_Sub024]	24.7
CGACUGUAAAGUCGACCGGUCAUCAAUAAUCGAGGACCGGUACGGCCGCCACUCGAUGUGAUUUCACAUGAGGAUCACCCAUGUA [Tryptophan A 17]	29.1
ACGUUCGCGGUAUCCAACCGGUUGUACAAACGAGGACCGGUACGGCCGCCACUCGUGAUUGUACAUGAGGAUCACCCAUGUGGCA [theeternabot_exclusion_MS2_Trp_A_28]	28.1
